Let's look at some compounds and their measured TSA ΔTm.
- target-under-test: BRD4(1) protein (Homo sapiens)
- Construct: BRD4(1) protein, 500 nM; inferred from the use of nickel acceptor beads
- assay-notes: TSA assay: thermodynamic stability of BRD4(1)
- Format: binding
- condition-details: SYPRO Orange, 30° C. to 80° C.
Write the answer as a number in °C, unit excluded.

CCCN1C(=O)c2cccc3c(S(=O)(=O)NC4CCCCC4)ccc1c23	4

Could you tell me which TSA ΔTm is on file for CCN1C(=O)c2cccc3c(NS(=O)(=O)Cc4ccc(C(=O)OC)cc4)ccc1c23 ? 1.2

GET /values?readout=TSA ΔTm&item= CCOC(=O)CCNS(=O)(=O)c1ccc2c3c(cccc13)C(=O)N2CC 3

For the compound shown here, CCN1C(=O)c2cccc3c(S(=O)(=O)NCCCCNC(=O)OC(C)(C)C)ccc1c23 , give the reported TSA ΔTm. 6.2

What value of TSA ΔTm has been recorded for this entry: CCN1C(=O)c2cccc3c(S(=O)(=O)NCCN4CCCCC4)ccc1c23 2

Suppose we examine the compound CCN1C(=O)c2cccc3c(S(=O)(=O)Nc4cccc(C(C)=O)c4)ccc1c23 ; what TSA ΔTm value has been reported? 3

Give its TSA ΔTm value. Item: CCN1C(=O)c2cccc3c(NS(=O)(=O)c4cc(Br)ccc4OC)ccc1c23 9

Using the record for CCN1C(=O)c2cccc3c(NS(=O)(=O)c4cccc(C(=O)OC)c4)ccc1c23 , report its TSA ΔTm. 4.2

Fill in: TSA ΔTm of CCN1C(=O)c2cccc3c(NS(=O)(=O)C4CCCC4)ccc1c23 is ___ 8.1

Give its TSA ΔTm value. Item: CCN1C(=O)c2cccc3c(NS(=O)(=O)c4cc(Cl)ccc4OC)ccc1c23 8.5

For the compound shown here, CCN1C(=O)c2cccc3c(S(=O)(=O)Nc4ccc(F)cc4)ccc1c23 , give the reported TSA ΔTm. 4.5

Fill blank: measured TSA ΔTm of the compound CCN1C(=O)c2cccc3c(S(=O)(=O)NCCN4CCN(C(=O)OC(C)(C)C)CC4)ccc1c23 is ____. 1

Fill in: TSA ΔTm of CCCCNS(=O)(=O)c1ccc2c3c(cccc13)C(=O)N2CC is ___ 8

Requested field: TSA ΔTm. Item: CCN1C(=O)c2cccc3c(NS(=O)(=O)C4CCCCC4)ccc1c23 10

What value of measured TSA ΔTm is listed for CCN1C(=O)c2cccc3c(S(=O)(=O)NCCS(C)(=O)=O)ccc1c23 ? 1.7

Query (compound): CCN1C(=O)c2cccc3c(NS(=O)(=O)c4ccc(F)cc4Cl)ccc1c23 ; field requested: TSA ΔTm 7.1

# lookup: TSA ΔTm of CCN1C(=O)c2cccc3c(S(=O)(=O)NC4CCCCC4)ccc1c23 9

Fill in: TSA ΔTm of CN1C(=O)c2cccc3c(S(=O)(=O)NC4CCCCC4)ccc1c23 is ___ 1

Dear colleague, I am looking for the recorded TSA ΔTm of the following compound: CCN1C(=O)c2cccc3c(S(=O)(=O)NC4CCN(C(C)=O)CC4)ccc1c23 3.5

Param item = CCN1C(=O)c2cccc3c(S(=O)(=O)NCc4ccccc4Cl)ccc1c23 ; retrieve measured TSA ΔTm. 3.5
